Measured IC50 by item
molecular target: Avi-KRAS WT (1-169) GppNHp/RAF1 RBD-3xFLAG (52-151) (Homo sapiens, UniProt P01116); construct: Avi-KRAS WT (1-169); assay: Raf1-KRAS WT-GppNHP disruption HTRF assay (Biological Example 1); format: binding; conditions: KRAS WT-GppNHp/RAF1 RBD HTRF
Sequence (P01116 1-169 isoform P01116-2): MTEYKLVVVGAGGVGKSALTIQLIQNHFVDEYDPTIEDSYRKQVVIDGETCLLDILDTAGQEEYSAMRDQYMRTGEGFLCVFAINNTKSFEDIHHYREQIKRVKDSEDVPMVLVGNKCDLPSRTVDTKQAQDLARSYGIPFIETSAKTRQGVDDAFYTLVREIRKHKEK

Examples from the recorded data:
Molecule	IC50
CC(=O)N1C[C@@H](C)[C@H](N(C)c2nc(OC[C@@]34CCCN3C[C@H](F)C4)nc3c(F)c(-c4ccc(F)c5sc(N)c(C#N)c45)c(C(F)(F)F)cc23)C1	100 to 1000 nM
CCN(c1nc(OC[C@@]23CCCN2C[C@H](F)C3)nc2c(F)c(-c3ccc(F)c4sc(N)c(C#N)c34)c(C(F)(F)F)cc12)[C@@H]1C[C@H](C)N(C(C)=O)C1 (atropisomer, axis not shown)	100 to 1000 nM

What measured IC50 goes with Cc1cc2n(n1)CCN(c1nc(OCC34CCCN3CC(F)C4)nc3c(F)c(-c4ccc(F)c5sc(N)c(C#N)c45)c(C(F)(F)F)cc13)C2 (centres unmarked) ? 1000 to 10000 nM

What measured IC50 goes with CN(c1nc(OC[C@@]23CCCN2C[C@H](F)C3)nc2c(F)c(-c3ccc(F)c4sc(N)c(C#N)c34)c(C(F)(F)F)cc12)C1CCCS(=O)(=O)C1 (some centres unmarked) ? 100 to 1000 nM

What measured IC50 goes with CN(c1nc(OC[C@@]23CCCN2C[C@H](F)C3)nc2c(F)c(-c3ccc(F)c4sc(N)c(C#N)c34)c(C(F)(F)F)cc12)C12CC(CO)(C1)C2 ? 100 to 1000 nM

###

target: Avi-KRAS G12V (2-169) GTP/RAF1 RBD-3xFLAG (51-131) (Homo sapiens, UniProt P01116, G12V); construct: Avi-KRAS G12V (2-169); experiment: Raf1-KRAS G12V-GTP disruption HTRF assay (Biological Example 3); assay type: binding; details: KRAS G12V, GTP-loaded
Sequence (P01116 2-169 isoform P01116-2 G12V): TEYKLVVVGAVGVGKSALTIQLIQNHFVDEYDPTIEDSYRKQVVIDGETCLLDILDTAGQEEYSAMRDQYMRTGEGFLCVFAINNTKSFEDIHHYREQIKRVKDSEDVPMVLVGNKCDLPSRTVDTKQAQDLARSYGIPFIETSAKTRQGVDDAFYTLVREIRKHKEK
Measured IC50 by item

Compound	IC50
CN(Cc1cccc(=O)n1C)c1nc(OC[C@@]23CCCN2C[C@H](F)C3)nc2c(F)c(-c3ccc(F)c4sc(N)c(C#N)c34)c(C(F)(F)F)cc12 (atropisomer, axis not shown)	> 10 µM

Hello, I am looking for reported IC50 with Avi-KRAS G12V (2-169) GTP/RAF1 RBD-3xFLAG (51-131) (Homo sapiens, UniProt P01116, G12V) for CN(Cc1ncco1)c1nc(OC[C@@]23CCCN2C[C@H](F)C3)nc2c(F)c(-c3ccc(F)c4sc(N)c(C#N)c34)c(C(F)(F)F)cc12 (atropisomer, axis not shown) . Could you help? 0.1 to 1 µM

Hello, I am looking for reported IC50 with Avi-KRAS G12V (2-169) GTP/RAF1 RBD-3xFLAG (51-131) (Homo sapiens, UniProt P01116, G12V) for CCN(c1nc(OC[C@@]23CCCN2C[C@H](F)C3)nc2c(F)c(-c3ccc(F)c4sc(N)c(C#N)c34)c(C(F)(F)F)cc12)[C@H]1CCN(C(=O)[C@H]2C[C@@H](F)C2)C1 (atropisomer, axis not shown) . Could you help? 0.1 to 1 µM

Hello, I am looking for reported IC50 with Avi-KRAS G12V (2-169) GTP/RAF1 RBD-3xFLAG (51-131) (Homo sapiens, UniProt P01116, G12V) for CCN(c1nc(OC[C@@]23CCCN2C[C@H](F)C3)nc2c(F)c(-c3ccc(F)c4sc(N)c(C#N)c34)c(C(F)(F)F)cc12)[C@H]1CCN(C(=O)OC2CC(F)(F)C2)C1 (atropisomer, axis not shown) . Could you help? 0.1 to 1 µM

###

system: SW620 cells (KRAS G12V); assay: Cell-based pERK HTRF assay in SW620 cell (Biological Example 4); conditions: SW620 (KRAS G12V) cells, pERK HTRF
Measured IC50 by item

What measured IC50 goes with CCC(=O)N1CC[C@@H](N(CC)c2nc(OC[C@@]34CCCN3C[C@H](F)C4)nc3c(F)c(-c4ccc(F)c5sc(N)c(C#N)c45)c(C(F)(F)F)cc23)[C@H]1C (atropisomer, axis not shown) ? < 0.1 µM

What measured IC50 goes with C[C@@H]1[C@H](N(C)c2nc(OC[C@@]34CCCN3C[C@H](F)C4)nc3c(F)c(-c4ccc(F)c5sc(N)c(C#N)c45)c(C(F)(F)F)cc23)CCN1C(=O)C1CC1 (atropisomer, axis not shown) ? 0.1 to 1 µM

What measured IC50 goes with CCN(c1nc(OC[C@@]23CCCN2C[C@H](F)C3)nc2c(F)c(-c3ccc(F)c4sc(N)c(C#N)c34)c(C(F)(F)F)cc12)[C@H]1CCS(=O)(=O)C1 (atropisomer, axis not shown) [Compound 491] ? 0.1 to 1 µM

What measured IC50 goes with CC(=O)N1CC[C@H](N(C)c2nc(OC[C@@]34CCCN3C[C@H](F)C4)nc3c(F)c(-c4ccc(F)c5sc(N)c(C#N)c45)c(C(F)(F)F)cc23)[C@@H]1C (single isomer, unassigned) ? > 1 µM

###

test system: SW620 cells (KRAS G12V); assay: Cell-based pERK HTRF assay in SW620 cell (Biological Example 4); settings: Homo sapiens, SW-620, SW620 (KRAS G12V) cells
pIC50: −log10 of the molar value.
Quantity Kind: pIC50

Compound	Value
CCN(c1nc(OC[C@@]23CCCN2C[C@H](F)C3)nc2c(F)c(-c3ccc(F)c4sc(N)c(C#N)c34)c(C(F)(F)F)cc12)C1C[C@@H](C)N(C(=O)C2CC2)C1 (stereo partly drawn)	> 7.00
CCN(c1nc(OC[C@@]23CCCN2C[C@H](F)C3)nc2c(F)c(-c3ccc(F)c4sc(N)c(C#N)c34)c(C(F)(F)F)cc12)[C@H]1CCN(C(=O)C2C[C@H]2F)[C@@H]1C (stereo partly drawn)	> 7.00

What measured pIC50 goes with CCN(c1nc(OC[C@@]23CCCN2C[C@H](F)C3)nc2c(F)c(-c3ccc(F)c4sc(N)c(C#N)c34)c(C(F)(F)F)cc12)[C@@H]1CC[C@H](C(=O)N(C)C)C1 ? > 7.00

###

biological target: Avi-KRAS WT (1-169) GppNHp/RAF1 RBD-3xFLAG (52-151) (Homo sapiens); construct: Avi-KRAS WT (1-169); assay: Raf1-KRAS WT-GppNHP disruption HTRF assay (Biological Example 1); type: binding; details: KRAS WT, GppNHp-loaded; class symbols
pIC50: −log10 of the molar value.
Quantity Kind: pIC50

Compound	Value
C=C(F)C(=O)N1CC[C@H](N(CC)c2nc(OC[C@@]34CCCN3C[C@H](F)C4)nc3c(F)c(-c4ccc(F)c5sc(N)c(C#N)c45)c(C(F)(F)F)cc23)C1 (atropisomer, axis not shown)	> 7.00

Now let's try a different one.
What measured pIC50 goes with CCN(c1nc(OC[C@@]23CCCN2C[C@H](F)C3)nc2c(F)c(-c3ccc(F)c4sc(N)c(C#N)c34)c(C(F)(F)F)cc12)[C@H]1CCN(C(=O)[C@@H]2CCCO2)C1 (atropisomer, axis not shown) ? > 7.00

###

target: Avi-KRAS G12R (1-169) GppNHp/RAF1 RBD-3xFLAG (52-151) (Homo sapiens, UniProt P01116, G12R); construct: Avi-KRAS G12R (1-169); assay: Raf1-KRAS G12R-GppNHP disruption HTRF assay (Biological Example 1); assay type: binding; details: KRAS G12R, GppNHp-loaded; class symbols
Sequence (P01116 1-169 isoform P01116-2 G12R): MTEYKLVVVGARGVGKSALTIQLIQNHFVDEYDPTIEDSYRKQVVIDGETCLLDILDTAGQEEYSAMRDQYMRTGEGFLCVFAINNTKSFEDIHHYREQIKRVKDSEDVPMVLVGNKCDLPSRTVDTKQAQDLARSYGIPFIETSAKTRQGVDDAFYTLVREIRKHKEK
pIC50: −log10 of the molar value.
Quantity Kind: pIC50

Examples from the recorded data:
Compound	Value
CCN(c1nc(OC[C@@]23CCCN2C[C@H](F)C3)nc2c(F)c(-c3ccc(F)c4sc(N)c(C#N)c34)c(C(F)(F)F)cc12)[C@H]1C[C@@H]2CCOC(=O)N2C1 (atropisomer, axis not shown)	6.00 to 7.00
C/C=C/C(=O)N1CC[C@@H](N(C)c2nc(OC[C@@]34CCCN3C[C@H](F)C4)nc3c(F)c(-c4ccc(F)c5sc(N)c(C#N)c45)c(C(F)(F)F)cc23)[C@H]1C	6.00 to 7.00
CCN(c1nc(OC[C@@]23CCCN2C[C@H](F)C3)nc2c(F)c(-c3ccc(F)c4sc(N)c(C#N)c34)c(C(F)(F)F)cc12)[C@H]1CCN(C(=O)[C@@H]2CC2(F)F)[C@@H]1C (atropisomer, axis not shown)	> 7.00

What measured pIC50 goes with CCN(c1nc(OC[C@@]23CCCN2C[C@H](F)C3)nc2c(F)c(-c3ccc(F)c4sc(N)c(C#N)c34)c(C(F)(F)F)cc12)[C@H]1CCN(C(=O)c2ccnn2C)C1 (atropisomer, axis not shown) ? > 7.00

What measured pIC50 goes with CCN(c1nc(OC[C@@]23CCCN2C[C@H](F)C3)nc2c(F)c(-c3ccc(F)c4sc(N)c(C#N)c34)c(C(F)(F)F)cc12)[C@H]1C[C@@H](C)N(C(=O)C2COC2)C1 (atropisomer, axis not shown) ? > 7.00

What measured pIC50 goes with CCN(c1nc(OC[C@@]23CCCN2C[C@H](F)C3)nc2c(F)c(-c3ccc(F)c4sc(N)c(C#N)c34)c(C(F)(F)F)cc12)[C@H]1CCN(C(=O)C(C)(F)F)C1 (atropisomer, axis not shown) ? > 7.00

This collection of values is drawn from patent US20260042764A1.
